# Measurement Description: Oral bioavailability in rat at 3 to 10 mg/kg
# Assay type: ADME, organism-based
# Measurement Setup: in vivo
Label rule, in plain words: bioavailability of 30% and up is yes, under 30% is no.

{"Molecule": "CCCCNc1nc(SCCC)nc2c1nnn2[C@@H]1C[C@H](CO)[C@@H](O)[C@H]1O", "Cat": "no"}
{"Molecule": "OCCO[C@H]1C[C@@H](n2nnc3c(N[C@@H]4C[C@H]4c4ccc(F)c(F)c4)nc(SCCC(F)(F)F)nc32)[C@H](O)[C@@H]1O", "Cat": "no"}
{"Molecule": "CCCSc1nc(N[C@@H]2C[C@H]2c2ccccc2)c2nnn([C@@H]3C[C@H](CO)[C@@H](O)[C@H]3O)c2n1", "Cat": "yes"}
{"Molecule": "CCCCNc1nc(SCCC)nc2c1nnn2[C@@H]1C[C@H](C(N)=O)[C@@H](O)[C@H]1O", "Cat": "no"}
{"Molecule": "CCCSc1nc(N[C@@H]2C[C@H]2c2ccc(F)c(F)c2)c2nnn([C@@H]3C[C@H](OCCO)[C@@H](O)[C@H]3O)c2n1 [TICAGRELOR]", "Cat": "no"}
{"Molecule": "CCCSc1nc(N[C@@H]2C[C@H]2c2ccccc2)c2nnn([C@@H]3C[C@H](OCCO)[C@@H](O)[C@H]3O)c2n1", "Cat": "no"}
{"Molecule": "CCCSc1nc(N[C@@H]2C[C@H]2c2ccccc2)c2nnn([C@@H]3C[C@H](CO)[C@@H](O)[C@H]3O)c2n1.Cl", "Cat": "yes"}
{"Molecule": "CCCSc1nc(N[C@@H]2C[C@H]2c2ccccc2)c2nnn([C@@H]3CC[C@@H](O)[C@H]3O)c2n1", "Cat": "yes"}
